B1: DLC1 (parent)
chain: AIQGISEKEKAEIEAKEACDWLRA

# Variants of: B1
# assayNotes: protein stability index of a GFP-peptide fusion (GPS, HEK-293T) (PSI 1-6); higher = more stable;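 further: lentivirally expressed fusions sorted by FACS into six bins by GFP to DsRed ratio, PSI derived from sequencing read proportions per bin multiplied by bin number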
# measurementConditions: c terminus: a fixed tail appended
Reported protein stability index values for the following variants.
reportedMetric: protein stability index

>>> measuredvalue("I2V")
4.19
>>> measuredvalue("D20Q")
3.91
>>> measuredvalue("A24D")
5.14
>>> measuredvalue("K8W")
3.68
>>> measuredvalue("A1H")
4.21
>>> measuredvalue("K8F")
3.97
